# assayText: PSAC antagonists in infected red cells, primary screen, cell-based, P. falciparum Indochina, OD700, 1 h (AID 1154)
# conditionsUsed: P. falciparum Indochina infected RBC osmotic lysis, higher = more signal, called active from +8 up or from −8 down
measurementType: z-score

compound: C=CCNC(=O)[C@H]1[C@@H]2C(=O)O[C@@H](c3ccccc3)[C@@H](c3ccccc3)N2[C@@H](c2ccccc2OCCO)[C@]12C(=O)Nc1ccc(C#CCC(C(=O)OC)C(=O)OC)cc12
reportedResult: 5.08
--
compound: CC(C)C[C@@H]1NC(=O)[C@H](C(C)C)NC(=O)[C@@]23C(=O)N[C@@H](Cc4ccccc4)C2[C@H](C)[C@@]2(C)O[C@H]2C3/C=C/CC/C=C/CNC1=O (some centres not stated)
reportedResult: 4.9
--
compound: CC(=O)NCCCC[C@@H]1NC(=O)[C@H]2C[C@@H](C(=O)NCCCCCCNC(=O)CS)[C@@H](c3ccc(O)cc3)N2C1=O
reportedResult: 4.2
--
compound: C=C(/C(=C/C[C@H](OC(C)=O)c1ccccc1OCCO)c1cnc2ccccc2c1)C(C)C
reportedResult: 9.77
--
compound: CCOC(=O)C[C@H]1[C@H](OC(=O)c2cc3ccccc3oc2=O)[C@@H](NC(=O)c2ccccc2)c2cc(OCCCO)ccc2N1C(=O)c1ccc2ccccc2n1
reportedResult: 10.4
--
compound: CNS(=O)(=O)c1ccc(C)cc1
reportedResult: -0.699
--
compound: O=C(OCc1ccccc1)C1=CCC2c3[nH]c4ccccc4c3C(=O)C1N2S(=O)(=O)c1ccccc1[N+](=O)[O-] (configuration not stated)
reportedResult: 7.08

Data provenance is PubChem BioAssay.
